target: purified recombinant human Aggrecanase-1 (rAgg1) (Homo sapiens, UniProt O75173); assay: In vitro fluorescence screen for Aggrecanase-1 inhibitors; format: biochemical; settings: Table 1; read-out: Agg1 IC50
Sequence (O75173 213-837): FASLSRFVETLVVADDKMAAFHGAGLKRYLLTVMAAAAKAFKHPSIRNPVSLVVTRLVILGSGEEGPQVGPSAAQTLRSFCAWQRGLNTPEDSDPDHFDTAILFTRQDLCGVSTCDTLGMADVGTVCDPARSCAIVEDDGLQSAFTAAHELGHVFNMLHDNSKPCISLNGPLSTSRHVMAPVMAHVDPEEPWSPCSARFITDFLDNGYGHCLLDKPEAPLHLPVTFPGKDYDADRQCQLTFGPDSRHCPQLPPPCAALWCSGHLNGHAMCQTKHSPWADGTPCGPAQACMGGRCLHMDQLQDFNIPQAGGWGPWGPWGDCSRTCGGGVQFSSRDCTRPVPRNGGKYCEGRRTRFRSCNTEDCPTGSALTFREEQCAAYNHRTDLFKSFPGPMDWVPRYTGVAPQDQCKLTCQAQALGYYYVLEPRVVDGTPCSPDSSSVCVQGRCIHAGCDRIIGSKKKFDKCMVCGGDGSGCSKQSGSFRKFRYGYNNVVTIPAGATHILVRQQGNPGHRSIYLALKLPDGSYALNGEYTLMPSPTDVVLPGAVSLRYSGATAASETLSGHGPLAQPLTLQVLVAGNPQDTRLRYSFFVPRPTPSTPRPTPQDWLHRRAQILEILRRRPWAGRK
pIC50: −log10 of the molar value.
QUANTITY_MEASURED: pIC50

>  <COMPOUND>
O=C(O)CC[C@H](NC(=O)c1ccc(-c2ccccc2)cc1)C(=O)NCCc1cccc(Br)c1

>  <VALUE_RELATION_SIGN>
=

>  <OBS_VALUE>
7.40

$$$$
>  <COMPOUND>
O=C(O)CC[C@H](NC(=O)c1ccc(-c2ccccc2)cc1)C(=O)NC1CCCCCCC1

>  <VALUE_RELATION_SIGN>
=

>  <OBS_VALUE>
7.05

$$$$
>  <COMPOUND>
COc1cc(COc2ccc(-c3ccc(C(=O)N[C@@H](CCC(=O)O)C(=O)NCc4ccccc4)cc3)cc2)cc(OC)c1 [Example 15G]

>  <VALUE_RELATION_SIGN>
=

>  <OBS_VALUE>
5.66

$$$$
>  <COMPOUND>
O=C(O)CCC(NC(=O)c1ccc(Nc2ncccn2)cc1)C(=O)NCc1ccccc1 (centres unmarked)

>  <VALUE_RELATION_SIGN>
=

>  <OBS_VALUE>
6.70

$$$$
>  <COMPOUND>
CCCCCNC(=O)[C@H](CCC(=O)O)NC(=O)c1ccc(-c2ccccc2)cc1

>  <VALUE_RELATION_SIGN>
=

>  <OBS_VALUE>
7.09

$$$$
>  <COMPOUND>
O=C(O)CC[C@H](NC(=O)c1ccc(-c2ccccc2)cc1F)C(=O)NCc1ccccc1 [Example 17ZZ]

>  <VALUE_RELATION_SIGN>
=

>  <OBS_VALUE>
6.70

$$$$
>  <COMPOUND>
Cc1ccc(CNC(=O)[C@H](CCC(=O)NO)NC(=O)c2ccc(-c3ccccc3)cc2)cc1C [Example 33B]

>  <VALUE_RELATION_SIGN>
>

>  <OBS_VALUE>
7.52

$$$$
